Reference source for all entries: PubChem BioAssay (NCI)

Parameter: TGI. Scope: all listed entries.
Tested on: M14 melanoma
Experimental Details: NCI tumour cell line growth inhibition, 48 h

Example entries begin here.
# lookup: TGI of COC(=O)CC1C(=O)OCc2c1cc1n(c2=O)Cc2c-1nc1ccccc1c2OC (stereo not drawn)
> 100 µM

"O=C1C(=O)c2ccccc2C(O)=C1C(CCc1ccccc1)C1=C(O)c2ccccc2C(=O)C1=O" ?
> 100 µM

"C[N+](C)(CCCCCC[N+](C)(C)CCCN1C(=O)c2cc3ccccc3cc2C1=O)CCCN1C(=O)c2ccccc2C1=O" ?
> 37.5 µM

"C/C=C(/C)C(=O)O[C@H]1C(C)=C[C@]23C(=O)[C@@H](C=C(COC(C)=O)[C@@H](O)[C@]12O)[C@H]1[C@@H](C[C@H]3C)[C@@]1(C)OC(=O)/C(C)=C\C" ?
5.47 µM

"COC(=O)[C@H](Cc1ccccc1)NC(=O)N1CCN(C(=O)N[C@@H](Cc2ccccc2)C(=O)OC)CCN(C(=O)N[C@@H](Cc2ccccc2)C(=O)OC)CC1" ?
> 100 µM

Next:
# lookup: TGI of CC1NOC(=O)C1N=Nc1ccccc1Cl (stereo not drawn)
> 100 µM

"Cc1c2cc[nH]c(=O)c2cc2c(=O)c3cnccc3[nH]c12" ?
> 100 µM

"N=C(N)CCCCCCCCC(=N)N" ?
> 100 µM

----------
Tested on: SNB-19 CNS
Experimental Details: NCI tumour cell line growth inhibition, 48 h
Parameter: TGI. Scope: all listed entries.
Output spec: scalar in µM, unitless text.

# lookup: TGI of "S=C1N(c2ccc(Cl)cc2)C2=C(N=Nc3ccccc3)C(=Nc3ccccc3S2)N1c1ccccn1"
28.3

Could you now consider this next compound?
# lookup: TGI of "CC1=Cc2cc3[n-]c(cc4nc(cc5[n-]c(cc1n2)cc5C)C(C)=C4CCC(=O)O)c(CCC(=O)O)c3C.[Pd+2]"
34.1

----------
Tested on: DU-145 prostate
Experimental Details: NCI tumour cell line growth inhibition, 48 h
Property Measured: TGI

Example entries begin here.
# lookup: TGI of "CCOC(=O)c1c(NC(=O)Nc2ccccc2)c(C(N)=O)c2n1CCCCC2"
> 100 µM

"Fc1ccc(-c2ccc(-c3nnc(-c4cc(F)c(Cl)cc4Cl)o3)o2)cc1Cl" ?
> 100 µM

Next:
# lookup: TGI of "O=S(=O)(c1ccc(I)cc1)N(c1ccccc1)S(=O)(=O)C(F)(F)C(F)(F)C(F)(F)C(F)(F)F"
> 100 µM

"CCCNC(=S)/N=C\c1c(O)c2ccccc2oc1=O" ?
> 100 µM

"O=C(/C=C/c1ccc(O)cc1)NCCc1ccc(O)cc1" ?
> 12.5 µM

"O=C(Nc1ncc(Cc2ccccc2Cl)s1)c1ccc2c(c1)OCCO2" ?
17.5 µM

"O=c1cc(-c2ccccc2)nc2n1CCN2Cc1ccccc1" ?
> 100 µM

"O=c1c2cccnc2nc2ccc3c[nH][nH]c3c12" ?
> 10 µM

----------
Test system: HOP-62 NSCLC
Experimental Details: NCI tumour cell line growth inhibition, 48 h
Parameter: TGI. Scope: all listed entries.

# lookup: TGI of CCCCCCCCCCCCCCCCP(=O)(O)OP(=O)(O)OCC1OC(n2cnc3c(N)ncnc32)C(O)C1O (stereo unspecified)
37.3 µM

Next:
# lookup: TGI of "O=S(O)c1cc(Cl)cc(Cl)c1O"
> 100 µM

COc1c(O)ccc2c1CN1CCc3cc4c(cc3C1C2)OCO4 (stereo unspecified) ?
> 100 µM

"Cc1sc2nc3n(c(=O)c2c1C)N=C(c1ccc(Cl)cc1)CS3" ?
> 100 µM

"COc1ccc2[nH]c(Cl)c(/C=C3/C(=O)N(C)c4ccccc43)c2c1" ?
> 100 µM

"C/C=C(\C)C(=O)O[C@H]1C=CC(=O)O[C@H]1CNC(=O)[C@H](C)O" ?
54 µM
